All values here come from patent US7772180B2.

Assign IC50 to each entry below.
# study-target: HCV NS3/4A protease complex, BMS strain (UniProt P27958, species not given/STRAIN_BMS)
# Construct: other: NS3/4A BMS strain; activity range class; numeric values, unit not given; said of H77 and J4L6S; fused on or other part: A three-lysine solubilising tail at the C-terminus of NS4A; A His tag is implied by the pET21b vector and Ni-NTA purification; Both are printed for the H77 and J4L6S constructs and apply to BMS by inference
# Sequence (P27958 1027-1657, change not shown, one chain of several): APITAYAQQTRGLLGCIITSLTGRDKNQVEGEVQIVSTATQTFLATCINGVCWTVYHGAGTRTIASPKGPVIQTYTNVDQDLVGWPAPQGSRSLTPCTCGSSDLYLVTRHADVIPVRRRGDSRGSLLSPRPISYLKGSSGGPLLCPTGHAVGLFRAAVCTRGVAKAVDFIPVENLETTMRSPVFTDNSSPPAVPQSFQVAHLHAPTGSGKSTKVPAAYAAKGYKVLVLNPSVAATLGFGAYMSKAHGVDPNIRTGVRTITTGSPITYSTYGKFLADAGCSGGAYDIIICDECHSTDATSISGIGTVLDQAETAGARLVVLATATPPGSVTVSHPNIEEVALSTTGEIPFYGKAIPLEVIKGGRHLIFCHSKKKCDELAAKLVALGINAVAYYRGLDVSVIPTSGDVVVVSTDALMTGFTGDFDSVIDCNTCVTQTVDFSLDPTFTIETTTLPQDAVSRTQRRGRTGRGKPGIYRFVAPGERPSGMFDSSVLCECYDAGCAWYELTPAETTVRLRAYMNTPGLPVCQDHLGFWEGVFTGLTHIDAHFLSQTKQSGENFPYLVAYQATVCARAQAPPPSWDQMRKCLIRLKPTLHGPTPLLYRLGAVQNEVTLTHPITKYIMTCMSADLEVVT
# assay-comment: FRET peptide assay to monitor HCV NS3/4A proteolytic activity (BMS strain)
# Assay type: biochemical, Hepatitis C virus (genotype 1a)
# condition-details: read-out: HCV Protease (IC50); NS3/4A BMS strain; activity range class

Task: Look up and state reported IC50 for C=C[C@@H]1C[C@]1(NC(=O)[C@@H]1C[C@@H](Oc2ncc(OC)c3ccc(Cl)cc23)CN1C(=O)C(C)Nc1n[s+]([O-])nc1OC)C(=O)NS(=O)(=O)C1CC1 (stereo partly drawn)
Output: > 200 nM

Task: Look up and state reported IC50 for C=C[C@@H]1C[C@]1(NC(=O)[C@@H]1C[C@@H](Oc2nccc3cc(OC)ccc23)CN1C(=O)[C@@H](Nc1nc(OC)nc(OC)n1)C(C)C)C(=O)NS(=O)(=O)C1CC1
Output: 20 to 200 nM

Task: Look up and state reported IC50 for C=C[C@@H]1C[C@]1(NC(=O)[C@@H]1C[C@@H](Oc2nccc3cc(OC)ccc23)CN1C(=O)C(Nc1ccc(OC)nc1)C(C)(C)C)C(=O)NS(=O)(=O)C1CC1 (single isomer, unassigned) [407 second isomer]
Output: 0.6 to 20 nM

Task: Look up and state reported IC50 for C=C[C@@H]1C[C@]1(NC(=O)[C@@H]1C[C@@H](Oc2ncc(OC)c3ccc(Cl)cc23)CN1C(=O)C(Nc1cc(Cl)cc(Cl)n1)C(C)(C)C)C(=O)NS(=O)(=O)C1CC1 (single isomer, unassigned) [Compound 32B]
Output: > 200 nM

Task: Look up and state reported IC50 for C=C[C@@H]1C[C@]1(NC(=O)[C@@H]1C[C@@H](Oc2ncc(OC)c3ccc(Cl)cc23)CN1C(=O)[C@@H](Nc1cccc(C(=O)NC(C)(C)C)c1)C(C)(C)C)C(=O)NS(=O)(=O)C1CC1 [212 first isomer]
Output: > 200 nM

Task: Look up and state reported IC50 for C=C[C@@H]1C[C@]1(NC(=O)[C@@H]1C[C@@H](Oc2ncc(OC)c3ccc(Cl)cc23)CN1C(=O)[C@@H](Nc1cccc(C(=O)O)c1)C(C)(C)C)C(=O)NS(=O)(=O)C1CC1 [211 first isomer]
Output: 0.6 to 20 nM

Task: Look up and state reported IC50 for C=C[C@@H]1C[C@]1(NC(=O)[C@@H]1C[C@@H](Oc2ncc(OC)c3ccc(Cl)cc23)CN1C(=O)[C@H](Nc1cccc(C(=O)OC)c1)C(C)(C)C)C(=O)NS(=O)(=O)C1CC1 [232 second isomer]
Output: 20 to 200 nM

Task: Look up and state reported IC50 for C=C[C@@H]1C[C@]1(NC(=O)[C@@H]1C[C@@H](Oc2nccc3cc(OC)ccc23)CN1C(=O)[C@@H](Nc1nc(OC)nc(OC)n1)C(C)(C)C)C(=O)NS(=O)(=O)C1CC1
Output: 0.6 to 20 nM

Task: Look up and state reported IC50 for C=CC1CC1(NC(=O)C1CC(Oc2ncc(OC)c3ccc(Cl)cc23)CN1C(=O)C(Nc1ccccc1)C(C)(C)C)C(=O)NS(=O)(=O)C1CC1 (single isomer, unassigned; isomer 3) [213 first isomer]
Output: > 200 nM
